# targetOrSystem: Caspase-3 (Homo sapiens, UniProt P42574)
# Sequence (P42574 whole entry): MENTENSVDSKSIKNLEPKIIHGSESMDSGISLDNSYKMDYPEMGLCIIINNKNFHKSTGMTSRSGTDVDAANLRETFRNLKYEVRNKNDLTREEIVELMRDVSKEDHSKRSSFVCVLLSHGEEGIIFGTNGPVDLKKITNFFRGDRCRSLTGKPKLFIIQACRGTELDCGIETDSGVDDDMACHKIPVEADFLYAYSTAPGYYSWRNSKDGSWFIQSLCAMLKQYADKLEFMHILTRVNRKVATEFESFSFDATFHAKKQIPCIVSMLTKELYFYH
Hi, quick share: literature Ki data for Caspase-3 (Homo sapiens, UniProt P42574), several sources combined.
Form entry: value (nM) — number only.

Input: Dear colleague, I am looking for the recorded Ki of the following compound: "O=C1C(=O)N(Cc2ccc(OCCF)cc2)c2ccc(S(=O)(=O)N3CCC[C@H]3COc3ccccc3)cc21"
Output: 0.2

Input: Dear colleague, I am looking for the recorded Ki of the following compound: "O=C1Nc2ccc(S(=O)(=O)N3CCC[C@H]3CNc3ccccc3)cc2C1=O"
Output: 19

Input: Dear colleague, I am looking for the recorded Ki of the following compound: "CN1C(=O)C(=O)c2cc(S(=O)(=O)N3CCC[C@H]3COc3ccccc3)ccc21"
Output: 56.1

Input: Dear colleague, I am looking for the recorded Ki of the following compound: "O=C1CC[C@H](O)c2cccc(O)c21"
Output: 732000

Input: Dear colleague, I am looking for the recorded Ki of the following compound: "CC(C)[C@H](NC(=O)COc1cccc2ccccc12)C(=O)N[C@@H](CC(=O)O)C(=O)COc1ccc(-c2ccccc2)cc1"
Output: 100

Input: Dear colleague, I am looking for the recorded Ki of the following compound: "Cc1cc(CNS(=O)(=O)c2ccc(O)c(C(=O)O)c2)sc1C(=O)N[C@@H](CC(=O)O)C(=O)CSCc1ccccc1Cl"
Output: 40

Input: Dear colleague, I am looking for the recorded Ki of the following compound: "O=C(O)C[C@H](NC(=O)c1ccc(CNS(=O)(=O)c2ccc(O)c(C(=O)O)c2)s1)C(=O)CSCc1ccccc1Cl"
Output: 20

Input: Dear colleague, I am looking for the recorded Ki of the following compound: "COc1ccc(CN2C(=O)C(=O)c3cc(S(=O)(=O)N4CCC[C@H]4COc4ccccc4)ccc32)cc1"
Output: 4.8

Input: Dear colleague, I am looking for the recorded Ki of the following compound: "CC(C)[C@H](NC(=O)COc1cccc2ccccc12)C(=O)N[C@@H](CC(=O)O)C(=O)COc1ccc2ccccc2c1"
Output: 90

Input: Dear colleague, I am looking for the recorded Ki of the following compound: "CN(C)c1ccc(-c2nc3cc(N)ccc3o2)cc1"
Output: 120000

Input: Dear colleague, I am looking for the recorded Ki of the following compound: "COC[C@@H]1CCCN1S(=O)(=O)c1ccc2c(c1)C(=O)C(=O)N2"
Output: 41.8

Input: Dear colleague, I am looking for the recorded Ki of the following compound: "O=C1C(=O)N(Cc2ccc(O)cc2)c2ccc(S(=O)(=O)N3CCC[C@H]3COc3ccccc3)cc21"
Output: 4

Input: Dear colleague, I am looking for the recorded Ki of the following compound: "COC[C@@H]1CCCN1S(=O)(=O)c1ccc2c(c1)C(=O)C(=O)N2Cc1ccc(OCCBr)cc1"
Output: 8

Input: Dear colleague, I am looking for the recorded Ki of the following compound: "O=C(O)C[C@H](NC(=O)c1cnc(CNS(=O)(=O)c2ccc(O)c(C(=O)O)c2)s1)C(=O)CSCc1ccccc1Cl"
Output: 30

Input: Dear colleague, I am looking for the recorded Ki of the following compound: "O=C1Nc2ccc(S(=O)(=O)N3CCC[C@H]3COc3ccccc3)cc2C1=O"
Output: 15

Input: Dear colleague, I am looking for the recorded Ki of the following compound: "COC[C@@H]1CCCN1S(=O)(=O)c1ccc2c(c1)C(=O)C(=O)N2Cc1ccc(O)cc1"
Output: 23.5

Input: Dear colleague, I am looking for the recorded Ki of the following compound: "COC[C@@H]1CCCN1S(=O)(=O)c1ccc2c(c1)C(=O)C(=O)N2Cc1ccc(I)cc1"
Output: 5.9
